Target: kinases (Homo sapiens, UniProt P00533, T790M)
Construct: purchased Eurofins/DiscoveRx; host or cells: E. coli BL21-derived host (T7 phage display) for most kinases; HEK-293 for the rest
Test: KINOMEscan kinase binding assay (Eurofins/DiscoveRx), % Ctrl
Conditions: target EGFR(T790M); 1 μM
Recorded measurements of % Ctrl, EGFR(T790M), one per entry
Reported Property: % Ctrl, EGFR(T790M) (% Ctrl)

1) Cc1nn(C)c2c1-c1ccc3c(c1)/C(=C/c1[nH]ccc1C(=O)N(C)CCCO2)C(=O)N3 | 86
2) CN1CCSCCOc2cc3c(cc2Cl)NC(=O)/C3=C\c2[nH]ccc2C1=O | 83
3) Cc1cc2c([nH]1)/C=C1\C(=O)Nc3ccc(cc31)-c1c(C)nn(C)c1COCCN(C)C2=O | 57
4) CN1CCOCCOc2cc3c(cc2Cl)NC(=O)/C3=C\c2[nH]ccc2C1=O | 100
5) Cc1cc2c([nH]1)/C=C1\C(=O)Nc3cc(Cl)c(cc31)OCCO[C@@H](C(=O)N1CCN(C)CC1)CN(C)C2=O | 94
6) Cc1cc2c([nH]1)/C=C1\C(=O)Nc3ccc(cc31)-c1c(noc1C)CNCCN(C)C2=O | 36
7) Cc1cc2c([nH]1)/C=C1\C(=O)Nc3cnc(cc31)-c1cn[nH]c1CNCCN(C)C2=O | 70

* * *

Quick reference: % Ctrl, KIT(L576P) of the listed items.
Target: kinases (Homo sapiens, UniProt P10721, L576P)
Construct: purchased Eurofins/DiscoveRx; host or cells: E. coli BL21-derived host (T7 phage display) for most kinases; HEK-293 for the rest
Sequence (P10721 26-976 L576P): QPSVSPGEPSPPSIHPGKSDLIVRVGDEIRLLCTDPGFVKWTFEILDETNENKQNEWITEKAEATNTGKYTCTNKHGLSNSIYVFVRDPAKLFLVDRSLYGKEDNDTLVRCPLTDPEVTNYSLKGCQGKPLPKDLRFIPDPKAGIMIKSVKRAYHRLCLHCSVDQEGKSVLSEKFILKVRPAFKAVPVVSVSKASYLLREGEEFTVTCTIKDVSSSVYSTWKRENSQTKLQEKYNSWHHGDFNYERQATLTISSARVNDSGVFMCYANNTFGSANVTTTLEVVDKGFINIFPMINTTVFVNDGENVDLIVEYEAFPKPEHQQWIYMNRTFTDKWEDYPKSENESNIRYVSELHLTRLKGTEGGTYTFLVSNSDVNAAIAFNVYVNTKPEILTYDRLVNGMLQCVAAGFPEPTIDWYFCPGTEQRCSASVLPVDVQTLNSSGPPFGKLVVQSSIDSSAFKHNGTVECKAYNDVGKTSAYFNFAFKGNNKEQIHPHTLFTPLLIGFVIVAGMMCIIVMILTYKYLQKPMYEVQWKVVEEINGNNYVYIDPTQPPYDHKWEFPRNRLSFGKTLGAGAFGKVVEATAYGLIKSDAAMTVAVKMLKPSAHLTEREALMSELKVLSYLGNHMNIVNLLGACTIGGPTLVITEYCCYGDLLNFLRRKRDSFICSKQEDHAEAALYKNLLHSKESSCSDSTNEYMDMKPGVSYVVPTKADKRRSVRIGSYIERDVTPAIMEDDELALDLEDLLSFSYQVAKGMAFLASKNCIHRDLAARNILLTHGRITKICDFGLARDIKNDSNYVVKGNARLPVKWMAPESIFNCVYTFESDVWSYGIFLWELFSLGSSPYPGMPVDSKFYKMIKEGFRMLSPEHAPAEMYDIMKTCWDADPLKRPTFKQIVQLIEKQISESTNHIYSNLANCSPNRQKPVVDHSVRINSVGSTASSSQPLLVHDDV
Experiment: KINOMEscan kinase binding assay (Eurofins/DiscoveRx), % Ctrl
Details: 1 μM; KIT(L576P)
Reported Property: % Ctrl, KIT(L576P) (% Ctrl)

1. Cc1cc2c([nH]1)/C=C1\C(=O)Nc3ccc(cc31)OCCOCCN(C)C2=O | 14
2. Cc1cc2c([nH]1)/C=C1\C(=O)Nc3ccc(cc31)-c1c(C)n[nH]c1CNCCN(C)C2=O | 73
3. Cc1cc2c([nH]1)/C=C1\C(=O)Nc3cnc(nc31)N(C)CCCOCCN(C)C2=O | 100
4. Cc1cc2c([nH]1)/C=C1\C(=O)Nc3ccc(cc31)-c1ccnn1CCOCCN(C)C2=O | 40
5. Cc1cc2c([nH]1)/C=C1\C(=O)Nc3cc(Cl)c(cc31)OCCOCCN(C)C2=O | 0
6. Cc1cc2c([nH]1)/C=C1\C(=O)Nc3ccc(cc31)OCCOCCNC2=O | 98
7. Cc1cc2c([nH]1)/C=C1\C(=O)Nc3ccc(cc31)-c1cnn(C)c1CNCCN(C)C2=O | 5.9
8. Cc1cc2c([nH]1)/C=C1\C(=O)Nc3cc(Cl)c(cc31)OCCO[C@@H](C(=O)N[C@@H]1CCNC1)CN(C)C2=O | 4.8
9. Cc1cc2c([nH]1)/C=C1\C(=O)Nc3ccc(cc31)-c1ccnn1CCNCCNC2=O | 100
10. CNC(=O)[C@H]1CN(C)C(=O)c2cc(C)[nH]c2/C=C2\C(=O)Nc3cc(Cl)c(cc32)OCCO1 | 8.5
11. Cc1cc2c([nH]1)/C=C1\C(=O)Nc3cc(Cl)c(cc31)OCCO[C@@H](C(=O)N(C)C)CN(C)C2=O | 39
12. Cc1cc2c([nH]1)/C=C1\C(=O)Nc3ccc(cc31)-c1cnn(C)c1COCCN(C)C2=O | 4.2
13. Cc1cc2c([nH]1)/C=C1\C(=O)Nc3ccc(cc31)CN(C)C(=O)COCCNC2=O | 98
14. Cc1cc2c([nH]1)/C=C1\C(=O)Nc3ccc(cc31)-c1c(noc1C)COCCN(C)C2=O | 100
15. Cc1cc2c([nH]1)/C=C1\C(=O)Nc3cc(Cl)c(cc31)OCCO[C@@H](C(=O)NC1CNC1)CN(C)C2=O | 8.7
16. Cc1cc2c([nH]1)/C=C1\C(=O)Nc3ccc(cc31)O[C@@H](C)COCCN(C)C2=O | 87
17. Cc1cc2c([nH]1)/C=C1\C(=O)Nc3cnc(cc31)-c1cnn(C)c1COCCNC2=O | 97
18. Cc1cc2c([nH]1)/C=C1\C(=O)Nc3ccc(nc31)-c1ccccc1OCCCNC2=O | 84
19. Cc1cc2c([nH]1)/C=C1\C(=O)Nc3ccc(cc31)-c1ccnn1CCOCCNC2=O | 100
20. Cc1cc2c([nH]1)/C=C1\C(=O)Nc3cc(Cl)c(cc31)OCCO[C@@H](C(=O)NC1CCNCC1)CN(C)C2=O | 5.1
21. Cc1cc2c([nH]1)/C=C1\C(=O)Nc3ccc(cc31)-c1cnn(C)c1CN(C)CCN(C)C2=O | 0

* * *

Below: a set of entries, each annotated with reported % Ctrl, FLT3(ITD, F691L).
Tested on: kinases
Experiment: KINOMEscan kinase binding assay (Eurofins/DiscoveRx), % Ctrl
Settings: target FLT3(ITD, F691L); 1 μM
Reported Property: % Ctrl, FLT3(ITD, F691L)

1) Cc1cc2c([nH]1)/C=C1\C(=O)Nc3cc(Cl)c(cc31)OCCO[C@@H](C(=O)N1CCN(C)CC1)CN(C)C2=O [Ex. 138] | 49 % Ctrl
2) Cc1cc2c([nH]1)/C=C1\C(=O)Nc3cnc(cc31)-c1cn[nH]c1CNCCN(C)C2=O [Ex. 55] | 0.1 % Ctrl
3) Cc1nn(C)c2c1-c1ccc3c(c1)/C(=C/c1[nH]ccc1C(=O)N(C)CCCO2)C(=O)N3 [Ex. 150] | 59 % Ctrl

* * *

Target: kinases (Homo sapiens, UniProt P00519, E255K)
Construct: purchased Eurofins/DiscoveRx; host or cells: E. coli BL21-derived host (T7 phage display) for most kinases; HEK-293 for the rest
Sequence (P00519 whole entry E255K): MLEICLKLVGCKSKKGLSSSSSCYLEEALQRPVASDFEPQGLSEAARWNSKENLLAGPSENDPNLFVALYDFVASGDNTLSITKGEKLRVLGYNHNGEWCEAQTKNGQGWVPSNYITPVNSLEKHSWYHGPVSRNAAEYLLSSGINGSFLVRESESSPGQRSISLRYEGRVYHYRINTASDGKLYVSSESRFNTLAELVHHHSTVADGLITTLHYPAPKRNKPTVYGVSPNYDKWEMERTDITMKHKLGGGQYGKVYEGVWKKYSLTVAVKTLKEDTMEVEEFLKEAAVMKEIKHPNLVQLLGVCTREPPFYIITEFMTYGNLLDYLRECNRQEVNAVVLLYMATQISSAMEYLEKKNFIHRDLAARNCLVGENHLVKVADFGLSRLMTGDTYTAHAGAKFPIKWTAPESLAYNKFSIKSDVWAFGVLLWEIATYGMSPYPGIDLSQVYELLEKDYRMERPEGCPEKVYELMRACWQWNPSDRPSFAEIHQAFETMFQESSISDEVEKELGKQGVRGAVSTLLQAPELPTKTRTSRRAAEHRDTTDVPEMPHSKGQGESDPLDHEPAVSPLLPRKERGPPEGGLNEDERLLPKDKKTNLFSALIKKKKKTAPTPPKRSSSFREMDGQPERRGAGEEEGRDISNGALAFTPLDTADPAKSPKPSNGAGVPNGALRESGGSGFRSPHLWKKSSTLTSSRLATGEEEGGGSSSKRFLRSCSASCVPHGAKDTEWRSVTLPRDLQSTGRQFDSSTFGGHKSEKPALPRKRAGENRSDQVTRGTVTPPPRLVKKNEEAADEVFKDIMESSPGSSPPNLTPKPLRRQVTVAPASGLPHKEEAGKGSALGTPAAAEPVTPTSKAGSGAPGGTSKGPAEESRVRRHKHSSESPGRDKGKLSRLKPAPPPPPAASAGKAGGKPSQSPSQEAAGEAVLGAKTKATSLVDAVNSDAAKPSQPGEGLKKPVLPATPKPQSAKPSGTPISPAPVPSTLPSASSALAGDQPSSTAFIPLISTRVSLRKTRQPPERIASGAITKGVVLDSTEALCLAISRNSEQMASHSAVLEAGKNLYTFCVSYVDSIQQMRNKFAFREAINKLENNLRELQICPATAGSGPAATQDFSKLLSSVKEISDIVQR
Test: KINOMEscan kinase binding assay (Eurofins/DiscoveRx), % Ctrl
Details: 1 μM; target ABL1(E255K)-phosphorylated
Method: Kinase binding assays were performed at Eurofins/DiscoveRx using the general KINOMEscan Protocol (Fabian, M. A. et al., “A small molecule-kinase interaction map for clinical kinase inhibitors,” Nat. Biotechnol. 2005, 23(3):329-36). For most assays, kinase-tagged T7 phage strains were prepared in an E. coli host derived from the BL21 strain. […] The kinase concentration in the eluates was measured by qPCR. […]
Reported Property: % Ctrl, ABL1(E255K)-phosphorylated (% Ctrl)

1. Cc1cc2c([nH]1)/C=C1\C(=O)Nc3cnc(cc31)-c1cnn(C)c1CN(C)CCN(C)C2=O | 0.4
2. CN1CCOc2cc3c(cc2Cl)NC(=O)/C3=C\c2[nH]ccc2C(=O)N(C)CC1 | 0.1
3. Cc1cc2c([nH]1)/C=C1\C(=O)Nc3cc(Cl)c(cc31)SCCOCCN(C)C2=O | 0.3
4. Cc1cc2c([nH]1)/C=C1\C(=O)Nc3ccc(cc31)-c1c(noc1C(C)C)COCCN(C)C2=O | 86
5. Cc1cc2c([nH]1)/C=C1\C(=O)Nc3ccc(cc31)-c1cnn(C)c1OCCCN(C)C2=O | 1.8

* * *

Biological target: kinases (Homo sapiens)
Construct: purchased Eurofins/DiscoveRx; host or cells: E. coli BL21-derived host (T7 phage display) for most kinases; HEK-293 for the rest
Assay: KINOMEscan kinase binding assay (Eurofins/DiscoveRx), % Ctrl
Details: 1 μM; RET
Experimental: Kinase binding assays were performed at Eurofins/DiscoveRx using the general KINOMEscan Protocol (Fabian, M. A. et al., “A small molecule-kinase interaction map for clinical kinase inhibitors,” Nat. Biotechnol. 2005, 23(3):329-36). For most assays, kinase-tagged T7 phage strains were prepared in an E. coli host derived from the BL21 strain. […] The kinase concentration in the eluates was measured by qPCR. […]
Reported Property: % Ctrl, RET (% Ctrl)

1) Cc1cc2c([nH]1)/C=C1\C(=O)Nc3cnc(cc31)-c1cnn(C)c1COCCNC2=O [Ex.123] | 91
2) Cc1cc2c([nH]1)/C=C1\C(=O)Nc3ccc(nc31)-c1ccccc1OCCCNC2=O [Ex.22] | 81
3) Cc1cc2c([nH]1)/C=C1\C(=O)Nc3ccc(cc31)OCCOCCNC2=O [Ex. 129] | 100
4) Cc1cc2c([nH]1)/C=C1\C(=O)Nc3ccc(cc31)OCCOCCN(C)C2=O [Ex.91] | 4.3
5) Cc1cc2c([nH]1)/C=C1\C(=O)Nc3cc(Cl)c(cc31)OCCO[C@@H](C(=O)NC1CCNCC1)CN(C)C2=O [Ex. 134] | 27

* * *

Target: kinases (Homo sapiens, UniProt P00519, F317I)
Construct: purchased Eurofins/DiscoveRx; host or cells: E. coli BL21-derived host (T7 phage display) for most kinases; HEK-293 for the rest
Sequence (P00519 whole entry F317I): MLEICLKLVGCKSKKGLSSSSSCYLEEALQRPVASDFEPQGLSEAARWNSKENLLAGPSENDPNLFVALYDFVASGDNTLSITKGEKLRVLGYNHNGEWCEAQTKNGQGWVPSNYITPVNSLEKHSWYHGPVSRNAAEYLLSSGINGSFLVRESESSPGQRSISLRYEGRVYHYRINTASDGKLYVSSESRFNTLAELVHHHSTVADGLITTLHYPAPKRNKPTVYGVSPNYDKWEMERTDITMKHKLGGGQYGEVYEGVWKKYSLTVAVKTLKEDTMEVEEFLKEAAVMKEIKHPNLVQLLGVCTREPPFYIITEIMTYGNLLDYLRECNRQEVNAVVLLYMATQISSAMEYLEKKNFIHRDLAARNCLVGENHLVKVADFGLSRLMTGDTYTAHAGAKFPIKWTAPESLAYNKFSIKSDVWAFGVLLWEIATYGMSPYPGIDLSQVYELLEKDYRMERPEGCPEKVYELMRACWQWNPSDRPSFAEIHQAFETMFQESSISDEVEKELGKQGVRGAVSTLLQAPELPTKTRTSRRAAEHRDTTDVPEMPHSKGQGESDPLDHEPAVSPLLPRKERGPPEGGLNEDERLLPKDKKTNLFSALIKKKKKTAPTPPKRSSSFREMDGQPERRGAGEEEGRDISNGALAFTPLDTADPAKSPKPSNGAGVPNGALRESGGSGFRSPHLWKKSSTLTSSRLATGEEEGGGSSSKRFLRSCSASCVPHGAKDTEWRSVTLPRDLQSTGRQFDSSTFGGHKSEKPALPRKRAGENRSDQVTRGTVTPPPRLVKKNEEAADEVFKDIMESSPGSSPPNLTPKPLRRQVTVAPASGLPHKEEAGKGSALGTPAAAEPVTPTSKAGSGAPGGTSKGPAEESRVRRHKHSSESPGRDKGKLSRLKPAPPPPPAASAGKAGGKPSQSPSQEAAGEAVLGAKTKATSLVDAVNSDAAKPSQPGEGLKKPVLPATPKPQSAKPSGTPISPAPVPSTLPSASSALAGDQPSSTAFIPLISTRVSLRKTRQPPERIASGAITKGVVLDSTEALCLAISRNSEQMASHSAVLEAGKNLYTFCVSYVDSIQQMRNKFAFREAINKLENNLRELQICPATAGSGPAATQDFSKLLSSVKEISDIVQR
Experiment: KINOMEscan kinase binding assay (Eurofins/DiscoveRx), % Ctrl
Settings: 1 μM; target ABL1(F317I)-phosphorylated
Reported Property: % Ctrl, ABL1(F317I)-phosphorylated (% Ctrl)

1) CN1CCOc2cc3c(cc2Cl)NC(=O)/C3=C\c2[nH]ccc2C(=O)N(C)CC1 | 6.7
2) Cc1cc2c([nH]1)/C=C1\C(=O)Nc3ccc(cc31)-c1c(noc1C(C)C)COCCN(C)C2=O | 91
3) Cc1cc2c([nH]1)/C=C1\C(=O)Nc3ccc(cc31)-c1cnn(C)c1OCCCN(C)C2=O | 31
4) Cc1cc2c([nH]1)/C=C1\C(=O)Nc3cnc(cc31)-c1cnn(C)c1CN(C)CCN(C)C2=O | 9.3
5) Cc1cc2c([nH]1)/C=C1\C(=O)Nc3cc(Cl)c(cc31)SCCOCCN(C)C2=O | 5
